System: HEK293 cells
procedure-text: Preliminary screening as DNA vectors, GFP transfection of HEK293 cells
Assay type: cell-based
cond: HEK293 cells; lipid/DOPE liposome with 75 ng plasmid DNA (psin-EGFP-IRES-Puro); number of cells expressing GFP divided by total number of nuclei (Hoechst)
Class YES: Absolute DNA transfection efficiency in HEK293 cells at least 2%. Class NO: Absolute DNA transfection efficiency in HEK293 cells below 2%.

Example entries begin here.
{"smiles-input": "CCCCCCCCCCCNc1nc(NCCCCCCC)nc(NCCCN(C)C)n1", "cat": "NO"}
{"smiles-input": "CCCCCCCCCNc1nc(NCCCCCCCCC)nc(NCCCN(C)C)n1", "cat": "NO"}
{"smiles-input": "CCCCCCCCCCCCCCCCSc1nc(NCCN2CCCCC2)nc(SCCCCCCCC)n1", "cat": "YES"}
{"smiles-input": "CCCCCCCCCCCCCCCCSc1nc(NCCN(CC)CC)nc(SCCCCCCCCCCCCCCCC)n1", "cat": "NO"}
{"smiles-input": "CCCCCCCCCCCCNc1nc(NCCCCCCCCCCC)nc(NCCN2CCOCC2)n1", "cat": "NO"}

Read the next record carefully.
Is it the case that CCCCCCCCCCCCCNc1nc(NCCCCCCCCCCCC)nc(NCCN2CCCCC2)n1 has Absolute DNA transfection efficiency in HEK293 cells reaching or exceeding 2%?
NO

###

System: HEK293 cells
procedure-text: Preliminary screening as DNA vectors, GFP transfection of HEK293 cells
Format: cell-based
cond: amino lipid/DOPE liposome with 75 ng plasmid DNA (psin-EGFP-IRES-Puro); number of GFP-expressing cells divided by total nuclei (Hoechst)
// map Absolute DNA transfection efficiency in HEK293 cells to label using lowest = under 4%, middle = from 4% up to 20%, highest = 20% and over

Reference set (8 entries):
{"compound": "CCCCCCCCCCCCCCCNc1nc(NCCN2CCOCC2)nc(SCCCCCCCCCC)n1 [S10N15 D2]", "cat": "lowest"}
{"compound": "CCCCCCCCCCSc1nc(NCCN(C)C)nc(SCCCCCCC)n1 [S7S10 D1]", "cat": "highest"}
{"compound": "CCCCCCCCCCCCCCCCNc1nc(NCCCN(C)C)nc(SCCCCCCCC)n1", "cat": "lowest"}
{"compound": "CCCCCCCCCCCSc1nc(NCCN2CCOCC2)nc(SCCCCCCC)n1 [S7S11 D2]", "cat": "highest"}
{"compound": "CCCCCCCCCCCCCCCCCCSc1nc(NCCN2CCOCC2)nc(SCCCCCC)n1 [S6S18 D2]", "cat": "middle"}
{"compound": "CCCCCCCCCCCCCCCCCCNc1nc(NCC2CCN(C)CC2)nc(SCCCCCCCC)n1", "cat": "middle"}
{"compound": "CCCCCCCCCCCCCCCCCCSc1nc(NCCCCCCCC)nc(NCCN2CCOCC2)n1 [S18N8 D2]", "cat": "lowest"}
{"compound": "CCCCCCCCCCCCNc1nc(NCCN2CCCC2)nc(SCCCCCCC)n1", "cat": "middle"}

Hi, small favor: classify CCCCCCCCCCCSc1nc(NCCCCCCCCC)nc(NCC2CCN(C)CC2)n1 by its Absolute DNA transfection efficiency in HEK293 cells when you get a moment.
highest

Sort into band: CCCCCCCCCCCCCCSc1nc(NCCN2CCCC2)nc(N(CCCCCCCCCCCC)CCCCCCCCCCCC)n1
lowest

Returns: class label. Input: CCCCCCCCCCCCCCCCSc1nc(NCCCN(C)C)nc(SCCCCCCC)n1
middle

Which category fits this record: CCCCCCCCCCCNc1nc(NCCN2CCCC2)nc(SCCCCCCCC)n1
highest

Pick a category. Item: CCCCCCCCCCCSc1nc(NCCCCCCC)nc(NCCN2CCCCC2)n1
middle
